# Test system: HEK-293T
# measurement-description: Incucyte cell viability with HEK293T; note: unitless GR value; below 1 slowed growth and below 0 cell loss
# Type: toxicity, cell-based
# recorded-conditions: human, 12 h, 10 µM, compound concentration 10 uM, replicate number 1, timepoint 12 hours
Readings of Growth Rate for the listed molecules
I'd appreciate a reply containing only the number, no unit.

These solved cases illustrate the format of a correct answer.
| input-smiles | system | Growth Rate |
| --- | --- | --- |
| CCOc1c2c(c(OCC)c3ncccc13)CN(c1ccc(CS(=O)(=O)NC(=O)Cc3ccccc3OC)cc1C)C2=O | HEK-293T | 0.83 |
| Cc1nc2ccc(Oc3ccc(F)cc3)cc2c(=O)n1C[C@H]1CCCN(C(C)C)C1.Cl | HEK-293T | -0.18 |
| S=C(NCCCc1c[nH]cn1)NCCCN(Cc1ccc(Cl)c(Cl)c1)c1ccc(Br)cn1 | HEK-293T | 0.08 |

Please provide the recorded Growth Rate for "C=CCNc1ncnc2ccc(Br)cc12" , tested on HEK-293T.
0.84

Please provide the recorded Growth Rate for "Br.Br.N=C(N)NCCSC(=N)N" , tested on HEK-293T.
0.76

Please provide the recorded Growth Rate for "CC(C)[C@H](C(=O)Nc1ccc(C(=O)NO)cc1)c1ccccc1" , tested on HEK-293T.
0.65

Please provide the recorded Growth Rate for "COc1ccc(NC(=O)c2ccc(-c3ccc(-c4noc(C)n4)cc3C)cc2)cc1OCCN(C)C.Cl" , tested on HEK-293T.
-0.65

Please provide the recorded Growth Rate for "Cc1cc(CN)cc(C)c1-c1ncn(C)c1-c1ccnc2cc(F)ccc12" , tested on HEK-293T.
0.93

Please provide the recorded Growth Rate for "Cc1ccccc1-c1cc(N2CCN(C)CC2)ncc1N(C)C(=O)C(C)(C)c1cc(C(F)(F)F)cc(C(F)(F)F)c1" , tested on HEK-293T.
0.84

Please provide the recorded Growth Rate for "COc1ccc(CN(CCN(C)C)c2ccccn2)cc1" , tested on HEK-293T.
0.94

###

# Test system: Fibroblast
# measurement-description: Incucyte cell viability with human fibroblast; note: unitless GR value; below 1 slowed growth and below 0 cell loss
# Assay type: toxicity, cell-based
# recorded-conditions: 6 h, 10 µM, compound concentration 10 uM, replicate number 2, timepoint 6 hours
Where a SMILES comes first, the peptide text is derived from it. Bridges are numbered along the chain shown (N, C = ends). [ ]: non-standard residue; d: D form. Orn = NCCC[C@H](N)C(=O)O; Mpa = O=C(O)CCS
Param threshold (0.6) applies to Growth Rate; output 1 when value >= threshold, -1 when value < threshold.

Worked examples, 4 compounds total:
| compound | cat |
| --- | --- |
| C[C@@](Cc1c[nH]c2ccccc12)(NC(=O)Nc1ccc([N+](=O)[O-])cc1)C(=O)NCC1(c2ccccn2)CCCCC1 | -1 |
| O=C1c2c(Br)c(Br)c(Br)c(Br)c2C(=O)N1c1ncc[nH]1 | -1 |
| CCCCC(=O)N(Cc1ccc(-c2ccccc2-c2nnn[nH]2)cc1)[C@H](C(=O)O)C(C)C | -1 |
| CN1CCC(C(=O)c2cccc(NC(=O)c3c(F)cc(F)cc3F)n2)CC1 | 1 |

For this compound, is measured Growth Rate 0.6 or higher? CC(C)Oc1ccc(-c2nc(-c3cccc4c3CC[C@@H]4NCCO)no2)cc1C#N [OZANIMOD]
-1

For this compound, is measured Growth Rate 0.6 or higher? "N[C@](CC1c2ccccc2Oc2ccccc21)(C(=O)O)[C@H]1C[C@@H]1C(=O)O"
1

For this compound, is measured Growth Rate 0.6 or higher? CCOc1ccc(C[C@H]2NC(=O)CCSSC[C@@H](C(=O)N3CCC[C@H]3C(=O)N[C@@H](CCCN)C(=O)NCC(N)=O)NC(=O)[C@H](CC(N)=O)NC(=O)[C@H]([C@@H](C)O)NC(=O)[C@H]([C@@H](C)CC)NC2=O)cc1 [ATOSIBAN] ([Mpa][dY](Et)ITNCP[Orn]G-NH2; disulfide 1-6)
-1

###

# System: HEK-293T
# measurement-description: Incucyte cell viability with HEK293T; note: unitless GR value; below 1 slowed growth and below 0 cell loss
# Type: toxicity, cell-based
# recorded-conditions: human, 0 h, 10 µM, compound concentration 10 uM, replicate number 1, timepoint 0 hours
Param threshold (0.4) applies to Growth Rate; output condition met when value >= threshold, condition not met when value < threshold.

| molecule | cat |
| --- | --- |
| CCNC(=O)[C@H]1O[C@@H](n2cnc3c(N)ncnc32)[C@H](O)[C@@H]1O.O | condition not met |
| CCCCCCCC/C=C\CCCCCCCC(N)=O [OLEAMIDE] | condition met |
| CC[C@@H](C)Nc1nc(C)nc2c(-c3ccc(OC)nc3C)c(C)nn12 | condition met |

For this molecule, is measured Growth Rate 0.4 or higher? "Cc1nn(C)c2nc(NNC(=O)Nc3cc(Cl)nc(Cl)c3)cc(C(C)C)c12"
condition met

For this molecule, is measured Growth Rate 0.4 or higher? "CC1(COc2ccc3c(c2)ncn3-c2ccc3cccc(N4CCC(N)CC4)c3n2)COC1"
condition not met

For this molecule, is measured Growth Rate 0.4 or higher? "CCCCNNC(=O)c1ccc(Br)cc1"
condition met

For this molecule, is measured Growth Rate 0.4 or higher? "CC(C)c1cc(Oc2c(Cl)cc(-n3nc(C#N)c(=O)[nH]c3=O)cc2Cl)n[nH]c1=O"
condition not met

For this molecule, is measured Growth Rate 0.4 or higher? "COc1cc(Nc2nc(C)cc(-c3cnn4nc(OC)ccc34)n2)cc(C(F)(F)F)c1"
condition met

For this molecule, is measured Growth Rate 0.4 or higher? "Cc1nc[nH]c1CCN.Cl"
condition met

For this molecule, is measured Growth Rate 0.4 or higher? "CC(C)(C)c1cc(NC(=O)Nc2ccc(-c3cn4c(n3)sc3cc(OCCN5CCOCC5)ccc34)cc2)no1"
condition not met

For this molecule, is measured Growth Rate 0.4 or higher? Cl.Clc1cccc(Cl)c1NC1=NCCN1 [CLONIDINE HYDROCHLORIDE]
condition met

For this molecule, is measured Growth Rate 0.4 or higher? "CC1(C)SSC(C)(C)[C@@H](NC(=O)[C@@H](N)Cc2ccc(O)cc2)C(=O)NCC(=O)N[C@@H](Cc2ccccc2)C(=O)N[C@H]1C(=O)O.O=C(O)C(F)(F)F"
condition met

For this molecule, is measured Growth Rate 0.4 or higher? "CNc1nc(NCc2ncccn2)c2c(-c3ccc4ncccc4c3)c[nH]c2n1"
condition not met

###

Readings of Growth Rate for the listed compounds
# Test system: U2OS
# measurement-description: Incucyte cell viability with U2OS; note: unitless GR value; below 1 slowed growth and below 0 cell loss
# Type: toxicity, cell-based
# recorded-conditions: human, 0 h, 10 µM, compound concentration 10 uM, replicate number 1, timepoint 0 hours
I'd appreciate a reply containing only the number, no unit.

These solved cases illustrate the format of a correct answer.
| compound | Growth Rate |
| --- | --- |
| CCN(Cc1ccncc1)C(=O)C(CO)c1ccccc1 (centres undefined) [TROPICAMIDE] | 0.73 |
| Nc1cnc(N2CCc3cc(S(=O)(=O)Nc4c(F)cc(Cl)cc4F)cc(N4CCCC4=O)c32)nc1 [TP-020n] | -0.04 |
| CNC(=O)[C@H]1O[C@@H](n2cnc3c(NCc4cccc(I)c4)ncnc32)[C@H](O)[C@@H]1O [IB-MECA] | -0.65 |
| CC1=C(C)C(=O)C(C(CCCCCC(=O)O)c2ccccc2)=C(C)C1=O (centres undefined) [SERATRODAST] | -0.5 |
| Cc1c(C(=O)NN2CCCCC2)nn(-c2ccc(Cl)cc2Cl)c1-c1ccc(Cl)cc1 [RIMONABANT] | 0.12 |
| CS(=O)(=O)N1CCCC(NC(=O)[C@H](CCC2CCCCC2)NC(=O)c2ccc(CNc3ncnc4c3nnn4-c3ccccc3)cc2)C1 (some centres undefined) [SR-301] | 0.63 |

# query: Growth Rate of entry "CCc1cc2c(cc1-c1cccc(S(=O)(=O)F)c1)C(C)(C)c1[nH]c3cc(C#N)ccc3c1C2=O"
0.95

# query: Growth Rate of entry CC(=O)NCC(=O)N1[C@@H]2CC[C@H]1c1ccc(Nc3ncc(C(F)(F)F)c(NC4CCC4)n3)cc12 [PF-03814735]
-0.24

# query: Growth Rate of entry "Oc1c(CN2CCN(c3ccccn3)CC2)cc(Cl)c2cccnc12"
0.03

# query: Growth Rate of entry "CC(C)c1c(NC(=O)Nc2ccc(Cl)cc2)c(=O)n(-c2ccccc2)n1C"
-0.9

# query: Growth Rate of entry O=C(NCC(=O)N1CC[C@H](N[C@H]2CC[C@@](O)(c3ccc(-c4ncccn4)cn3)CC2)C1)c1cccc(C(F)(F)F)c1 [PF-4136309]
0.62

# query: Growth Rate of entry C[C@H]1[C@H](OC(=O)CCC(=O)O)O[C@@H]2O[C@@]3(C)CC[C@H]4[C@H](C)CC[C@@H]1[C@@]24OO3 [ARTESUNATE]
0.12

# query: Growth Rate of entry N#Cc1cc2c(OCC(O)CN3CCN(C(c4ccccc4)c4ccccc4)CC3)cccc2[nH]1 (racemic)
-0.56

# query: Growth Rate of entry "O=C(O)C(F)(F)F.O=C1NC(=O)/C(=C/c2c[nH]c(=O)c(-c3ccc(N4CCNCC4)nc3)c2)S1"
-0.39
